# Test system: C57BL/6 mice given hANGPTL4-mFc
# Type: in vivo
# condition_parameters: antibody 5 mg/kg s.c.; 24 h later hANGPTL4-mFc 25 μg/mouse i.v.; bled 30 min after; mean±SEM
measure_name: HDL
Express your answer as a number followed by its unit.

In: Consider the molecule H1H624P: anti-hANGPTL4 antibody, HCVR/LCVR SEQ ID NOs 210/212 (antibody, V domains shown) VH: EVQLVESGGGLVQPGGSLRLSCAASEFIFSSYAMNWVRQAPGKGLEWVSVISGSGDSKYYADSVKGRFTISRDNSKNTLYLQMNSLRVEDTAVYYCAKDGKDRYGFYYNFYGMDVWGQGTTVTVS VL: DIQMTQSPSFLSASVGDRVTITCWASQGISSYLAWYQQKPGKAPKILIYAASTLQSGVPSRFSASGSGTEFTLTISSLQPEDFATYHCQQLNSYPFTFGPGTKVDIK . State its measured HDL.
Out: 35.40 ± 2.68 mg/dL

Moving on to another molecule below.
In: Consider the molecule H1H295P: anti-hANGPTL4 antibody, HCVR/LCVR SEQ ID NOs 186/188 (antibody, V domains shown) VH: EVQLVESGGGLVQPGGSLRLSCAASGFTFSTYDMHWVRQAPGKGLEWVSAIGSAGDTYYPGSVKGRFTISRDNAKSSLFLQMNSLRAGDTALYYCARGDSRNYFVGDYFDYWGQGTLVTVSS VL: DIQMTQSPSTLSASVGDRVTITCRASQSIGTWLAWYQQKPGKAPKILIYKASSLEGGVPSRFSGSGSGTEFTLTISSLQPDDFANYYCQQYNSFYRTFGQGTKVEIK . State its measured HDL.
Out: 39.70 ± 3.13 mg/dL
